# Assay Target: Proteinase K (Parengyodontium album, UniProt P06873)
# Construct: purchased Roche
# Sequence (P06873 106-384): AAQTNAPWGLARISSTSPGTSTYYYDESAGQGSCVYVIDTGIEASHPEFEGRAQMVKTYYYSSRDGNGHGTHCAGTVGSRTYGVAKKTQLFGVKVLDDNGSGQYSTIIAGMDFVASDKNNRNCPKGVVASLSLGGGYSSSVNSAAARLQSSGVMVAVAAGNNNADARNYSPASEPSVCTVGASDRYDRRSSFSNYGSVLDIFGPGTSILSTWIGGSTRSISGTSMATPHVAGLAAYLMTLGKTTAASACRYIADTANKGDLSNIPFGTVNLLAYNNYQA
# Assay Overview: Proteinase K inhibition, fluorogenic substrate assay (Suc-Ala-Ala-Pro-Phe-AMC)
# Assay type: biochemical, Tritirachium album
# Conditions: Proteinase K; inhibitor concentration 1.37174 nM; 40 min pre-incubation
Assay Endpoint: Mean (RFU/s)
In your response, put the unit directly after the numeric value.

Previously resolved entries follow.
Compound	Assay Target	Assay Endpoint	Data Value
C/C=C1\NC(=O)[C@@H](NC(=O)[C@@H](NC(=O)[C@H](C)NC(=O)CCC)[C@@H](C)O)[C@@H](C)OC(=O)[C@H](C(C)C)NC(=O)[C@H](Cc2ccc(O)c(Br)c2)N(C)C(=O)[C@H](Cc2ccccc2)N2C(=O)[C@H](CC[C@H]2O)NC1=O [Molassamide B, molassamide B]	Proteinase K (Parengyodontium album, UniProt P06873)	Mean (RFU/s)	5.564 RFU/s
CC=C1NC(=O)[C@@H](NC(=O)[C@@H](NC(=O)[C@@H]2CCCN2C(=O)CCC)[C@@H](C)OC(=O)C2CCCN2C(=O)CCC)[C@@H](C)OC(=O)[C@H](C(C)C)NC(=O)[C@H](Cc2ccc(O)cc2)N(C)C(=O)[C@H](CC(C)C)N2C(=O)[C@H](CC[C@H]2O)NC1=O (stereo partly drawn) [Rivulariapeptolide 1121, rivulariapeptolide 1121]	Proteinase K (Parengyodontium album, UniProt P06873)	Mean (RFU/s)	6.292 RFU/s

Proceed to the following item.
Record lookup: for Proteinase K (Parengyodontium album, UniProt P06873), what Mean (RFU/s) belongs to CCCC(=O)N1CCCC1C(=O)NC(C(=O)NC1C(=O)NC(CC(C)C)C(=O)NC2CCC(O)N(C2=O)C(Cc2ccccc2)C(=O)N(C)C(Cc2ccc(O)cc2)C(=O)NC(C(C)C)C(=O)OC1C)C(C)OC(=O)C1CCCN1C(=O)CCC (stereo not drawn) [Rivulariapeptolide 1185, rivulariapeptolide 1185] ?
6.389 RFU/s

The reported measurements were obtained from paper PMC9358669.
